B1: library; a variant is named by its letters at X, in order (parent)
chain: MNIQIGELAKRTACPVVTIRFYEQEGLLPPPGRSRGNFRLYGEEHVERLQFIRHCRSLDMPLSDVRTLLSYRKRPDQDCGEVXMLLDEHIRQVESRIGALLELKHHLVELREACSGARPAQSCGILQXLSXCVCXTRGTTAHXSD

variants of: B1; assay: sfGFP reporter fluorescence (15 h) (µM FITC); higher = stronger transcriptional activation; conditions: library round: Round 2; ligand: 1 µM Pb
sfGFP reporter fluorescence vs 0.07: at or above is YES, below is NO.

>  <MUTANT_CODE>
NGDDP D64K K104V R111A

>  <LABEL_CLASS>
YES

$$$$
>  <MUTANT_CODE>
TGSPP

>  <LABEL_CLASS>
YES

$$$$
>  <MUTANT_CODE>
TGDDP K104R E112F

>  <LABEL_CLASS>
NO

$$$$
>  <MUTANT_CODE>
NGAAS

>  <LABEL_CLASS>
YES

$$$$
>  <MUTANT_CODE>
TGDDY V82I L129I

>  <LABEL_CLASS>
NO

$$$$
>  <MUTANT_CODE>
NGDDP P61E D64K E112H

>  <LABEL_CLASS>
YES

$$$$
>  <MUTANT_CODE>
TIDAP L107C G124A

>  <LABEL_CLASS>
YES

$$$$
>  <MUTANT_CODE>
TGDDP R96A K104V

>  <LABEL_CLASS>
NO

$$$$
>  <MUTANT_CODE>
NGDAP L129I H142A

>  <LABEL_CLASS>
NO

$$$$
>  <MUTANT_CODE>
NHCDL E109L

>  <LABEL_CLASS>
YES

$$$$
>  <MUTANT_CODE>
NGDDP M60L D64K E81A

>  <LABEL_CLASS>
YES

$$$$
>  <MUTANT_CODE>
NGDDP P61N D64T E112V

>  <LABEL_CLASS>
YES

$$$$
>  <MUTANT_CODE>
NHCDA

>  <LABEL_CLASS>
YES

$$$$
>  <MUTANT_CODE>
TGSAP V108L

>  <LABEL_CLASS>
YES

$$$$
>  <MUTANT_CODE>
TGHAP

>  <LABEL_CLASS>
YES

$$$$
>  <MUTANT_CODE>
TGSDP V108L

>  <LABEL_CLASS>
YES

$$$$
>  <MUTANT_CODE>
NMDDP L107C E109V

>  <LABEL_CLASS>
YES

$$$$
>  <MUTANT_CODE>
NGSAA K104R

>  <LABEL_CLASS>
YES

$$$$
>  <MUTANT_CODE>
NGCDP I125V L129M

>  <LABEL_CLASS>
NO

$$$$
>  <MUTANT_CODE>
NMDAP L85I

>  <LABEL_CLASS>
YES

$$$$
>  <MUTANT_CODE>
NIDDP M60L D64K R111L

>  <LABEL_CLASS>
YES

$$$$
